molecular target: recombinant Rho kinase II (ROKα) (UniProt Q62868); assay: Inhibition of recombinant Rho kinase II (ROKα), 33P uptake into S6 substrate peptide; settings: Rho-kinase-catalyzed uptake of 33P into S6 peptide, 37° C., vs solvent control
pIC50 values for the compounds below.
pIC50 is defined as minus the log10 of a concentration measured in mol/L.

compound="Nc1nc(Nc2ccc(Cc3ccnc4[nH]ccc34)c(F)c2)cc(C(F)(F)F)n1 [Example 8]" measured_endpoint=pIC50 numeric_result=8.15
compound="Cc1c[nH]c2nccc(Nc3ccc(Nc4cc(Cl)nc(N)n4)cc3F)c12 [Example 10]" measured_endpoint=pIC50 numeric_result=8.52

Quick one: pIC50 of Cc1c[nH]c2nccc(Nc3ccc(Nc4cc(C(F)(F)F)nc(N)n4)cc3F)c12 [Example 11] ?
8.40
